# Test system: M14 melanoma
# Measurement Notes: NCI-60 one-dose screen, 48 h (100 = growth as untreated, 0 = no growth, -100 = all killed)
# Details: 10 µM unless noted
About 83,000 compounds went through this panel and 20% of them were active in at least one assay; those are over-represented in the sample as a whole.
Provide the reported growth of each item.
Answers are plain numbers, in %.

Below: 7 compounds and their reported growth.
[
  {
    "Compound": "COc1cccc(-c2nc(-c3ccc(NC(=O)C(C)C)cc3)[nH]c2-c2ccnc(Br)c2)c1",
    "Experimental System": "M14 melanoma",
    "growth (%)": 40.2
  },
  {
    "Compound": "Nc1nc2ccccc2c2c(=O)c3cc(F)ccc3sc12",
    "Experimental System": "M14 melanoma",
    "growth (%)": 99.6
  },
  {
    "Compound": "COc1ccc(/C=C(/C#N)n2nnc3cccc(F)c32)cc1",
    "Experimental System": "M14 melanoma",
    "growth (%)": -27
  },
  {
    "Compound": "CCCCNc1nc(NN2C(=O)c3cccc4cccc(c34)C2=O)nc(-n2cnc3ccccc32)n1",
    "Experimental System": "M14 melanoma",
    "growth (%)": 103
  },
  {
    "Compound": "CCOC(=O)c1sc2ncc(-c3ccc(OC)cc3)n2c1C",
    "Experimental System": "M14 melanoma",
    "growth (%)": 95.3
  },
  {
    "Compound": "O=C(O)c1cn(C2CC2)c2cc(N3CCN(C(=O)Nc4nc(-c5ccccc5)cs4)CC3)c(F)cc2c1=O",
    "Experimental System": "M14 melanoma",
    "growth (%)": 31.6
  },
  {
    "Compound": "C=C1CC[C@H](C(C)C)[C@@H]2[C@H]1[C@H]1CC(=C)[C@@H](O)CC[C@@](C)(O)[C@@H]2O1",
    "Experimental System": "M14 melanoma",
    "growth (%)": 98.6
  }
]

For COc1cc(C2CC(c3cccc(Br)c3)=NN2C(C)=O)cc(OC)c1OC (stereo not drawn) the compound record lists growth as 8.38

* * *

# Tested on: T-47D breast
# Measurement Notes: NCI-60 one-dose screen, 48 h (100 = growth as untreated, 0 = no growth, -100 = all killed)
# Details: 10 µM unless noted
Compounds without any hit were thinned out: in the full panel of roughly 83,000, 20% have a hit.
Provide the reported growth of each item.
Give bare numbers, in %.

Dear reader, for each entry below, please note its growth.
1. CN(C)c1ccc2nc3ccc(=[N+](C)C)c([N+](=O)[O-])c-3sc2c1
2. CN1CCN(c2ccc(-c3ccc4ncc(C#N)c(Nc5ccc(F)c(Cl)c5)c4c3)cc2)CC1
3. N[C@@H](Cc1ccccc1)[C@@H](O)C(=O)NCc1ccc(F)cc1
4. NCCNc1nc2ccccc2c2c(=O)c3cc(F)ccc3sc12
5. COc1ccc(-c2cc(-c3ccc(Cl)cc3)c(C#N)c(=O)n2CCCCCC(=O)Nc2ccccc2N)cc1
6. Nc1ccccc1-c1cc2c(c3c1[nH]c1ccccc13)CCCCC2

10.3
60.7
113
88.7
18.6
86.8

Dear reader, for each entry below, please note its growth.
1. O=C1/C(=C/c2ccccc2[N+](=O)[O-])Oc2ccc(O)c(O)c21
2. Cc1nc2ccccc2c(/C=C/c2ccc(Cl)cc2)c1C(=O)/C=C/c1cccs1

[39.8, 50.1]
